Catalogue of compounds with associated Bliss excess
Test system: L-428 (Hodgkin's Lymphoma)
run-description: Bliss excess, mean over the matrix (fraction); higher = more synergy;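 also: after 72 h of two-drug dosing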
Reply with just the number.

What value of Bliss excess has been reported for the following compound? Cn1cnc2c(F)c(Nc3ccc(Br)cc3Cl)c(C(=O)NOCCO)cc21 [Selumetinib] + C[C@@H]1COCCN1C2=NC(=NC(=C2)C3(CC3)[S@](=N)(=O)C)C4=C5C=CNC5=NC=C4 [AZD6738] (first compound max 10 µM, 7x7, partner max 10 µM)
-0.0311

Returns the measured Bliss excess for the input compound. Input: CN(C)CCCOc1ccc(-c2ccc3ncc4c(c3c2)n(C2CCOCC2)c(=O)n4C)cn1 [AZD0156] + C=CCn1c(=O)c2cnc(Nc3ccc(N4CCN(C)CC4)cc3)nc2n1-c1cccc(C(C)(C)O)n1 [AZD1775] (first compound max 1 µM, partner max 1 µM)
0.0106

Look up Bliss excess for this compound: Cn1cnc2c(F)c(Nc3ccc(Br)cc3Cl)c(C(=O)NOCCO)cc21 [Selumetinib] + CCN(CCO)CCCOc1ccc2c(Nc3cc(CC(=O)Nc4cccc(F)c4)[nH]n3)ncnc2c1 [AZD2811] (first compound max 10 µM, 7x7, partner max 1 µM)
0.0174

Any idea what Bliss excess was measured for COc1cc2c(cc1OCCCCCOc1cc3c(cc1OC)C(=O)N1C=C(C)C[C@H]1C=N3)N=C[C@@H]1CC(C)=CN1C2=O [SG3199] + O=C(c1cc(Cc2n[nH]c(=O)c3ccccc23)ccc1F)N1CCN(C(=O)C2CC2)CC1 [Olaparib] (first compound max 0.001 µM, 7x7, partner max 10 µM) ?
-0.0207

====

System: BE-13 (T-Lymphoblastic Leukemia)
run-description: Bliss excess, mean over the matrix (fraction); higher = more synergy
observed-property: Bliss excess
Reply: number alone, nothing else.

Solved cases (7 shown):
Cc1c2c(nn1C)CSCc1cc(n(C)n1)CSc1cc(c3ccccc3c1)OCCCc1c(C(=O)O)n(C)c3c-2c(Cl)ccc13 [AZD5991] + CCN(CCO)CCCOc1ccc2c(Nc3cc(CC(=O)Nc4cccc(F)c4)[nH]n3)ncnc2c1 [AZD2811] (first compound max 1 µM, 7x7, partner max 1 µM) ... 0.0225
CN(CCO)CC[C@H](CSc1ccccc1)Nc1ccc(S(=O)(=O)NC(=O)c2ccc(N3CCC([C@@H](O)c4ccccc4-c4ccc(Cl)cc4)CC3)cc2)cc1S(=O)(=O)C(F)(F)F [AZD4320] + Cn1cnc2c(F)c(Nc3ccc(Br)cc3Cl)c(C(=O)NOCCO)cc21 [Selumetinib] (first compound max 1 µM, 7x7, partner max 3 µM) ... -0.0017
CN(C)CCCOc1ccc(-c2ccc3ncc4c(c3c2)n(C2CCOCC2)c(=O)n4C)cn1 [AZD0156] + CCN(CCO)CCCOc1ccc2c(Nc3cc(CC(=O)Nc4cccc(F)c4)[nH]n3)ncnc2c1 [AZD2811] (first compound max 1 µM, 7x7, partner max 1 µM) ... -0.0908
Cn1cnc2c(F)c(Nc3ccc(Br)cc3Cl)c(C(=O)NOCCO)cc21 [Selumetinib] + C=CCn1c(=O)c2cnc(Nc3ccc(N4CCN(C)CC4)cc3)nc2n1-c1cccc(C(C)(C)O)n1 [AZD1775] (first compound max 10 µM, partner max 1 µM) ... -0.0423
C[C@@H]1COCCN1c1cc(C2([S@](C)(=N)=O)CC2)nc(-c2ccnc3[nH]ccc23)n1 [AZD6738] + Nc1ccn([C@@H]2O[C@H](CO)[C@@H](O)C2(F)F)c(=O)n1 [Gemcitabine] (first compound max 10 µM, 7x7, partner max 0.3 µM) ... 0.153
N#Cc1cnc(Nc2cc(NC[C@H]3CNCCO3)c(C(F)(F)F)cn2)cn1 [SRA737] + C=CCn1c(=O)c2cnc(Nc3ccc(N4CCN(C)CC4)cc3)nc2n1-c1cccc(C(C)(C)O)n1 [AZD1775] (first compound max 10 µM, partner max 1 µM) ... 0.0657
Cc1c2c(nn1C)CSCc1cc(n(C)n1)CSc1cc(c3ccccc3c1)OCCCc1c(C(=O)O)n(C)c3c-2c(Cl)ccc13 [AZD5991] + Cn1cnc2c(F)c(Nc3ccc(Br)cc3Cl)c(C(=O)NOCCO)cc21 [Selumetinib] (first compound max 1 µM, 7x7, partner max 3 µM) ... 0.0415

Quick one: Bliss excess of NC1(C(=O)N[C@@H](CCO)c2ccc(Cl)cc2)CCN(c2ncnc3[nH]ccc23)CC1 [Capivasertib] + C[C@@H]1COCCN1C2=NC(=NC(=C2)C3(CC3)[S@](=N)(=O)C)C4=C5C=CNC5=NC=C4 [AZD6738] (first compound max 10 µM, 7x7, partner max 10 µM) ?
-0.0877

src = the supplement of paper PMC11061612
